# System: serum protein
# assay: Protein-binding ratio of UTs in rat serum
# Assay type: in vitro ADME, rats
# assay_conditions: ultrafiltration at 37 °C
attribute_measured: Protein-binding ratio, Normal rats in vivo (%) (n = 6)

# count of solved cases: 5
molecule	subject_of_test	value_observed
Nc1ccccc1C(=O)C[C@@H](N)C(=O)O	serum protein	> 90%
N[C@@H](Cc1ccc(O)c(O)c1)C(=O)O [3-(3,4-dihydroxyphenyl)-L-alanine]	serum protein	< 70%
CN(C)c1nc2c(ncn2[C@@H]2O[C@H](CO)[C@@H](O)[C@H]2O)c(=O)[nH]1	serum protein	less than 24%
O=c1[nH]cc([C@@H]2O[C@H](CO)[C@@H](O)[C@H]2O)c(=O)[nH]1	serum protein	less than 24%
O=C(O)c1cc(=O)[nH]c(=O)[nH]1	serum protein	less than 24%

# return recorded Protein-binding ratio, Normal rats in vivo (%) (n = 6) for input `CN1CC(=O)NC1=N`
less than 24%

// Input: Cc1ccc(O[C@@H]2O[C@H](C(=O)O)[C@@H](O)[C@H](O)[C@H]2O)cc1 [p-cresol glucuronide] . Output its Protein-binding ratio, Normal rats in vivo (%) (n = 6) only.
< 70%

Identify the reported Protein-binding ratio, Normal rats in vivo (%) (n = 6) for the following entry. `NCCCC[C@H](NCC(=O)O)C(=O)O`
< 70%

Consider the molecule CCc1ccc(OS(=O)(=O)[O-])cc1.[K+] [4-ethylphenyl sulfate] . State its measured Protein-binding ratio, Normal rats in vivo (%) (n = 6).
> 90%

###

# subject_of_test: OAT1 (Homo sapiens, UniProt Q4U2R8)
# Sequence (Q4U2R8 whole entry): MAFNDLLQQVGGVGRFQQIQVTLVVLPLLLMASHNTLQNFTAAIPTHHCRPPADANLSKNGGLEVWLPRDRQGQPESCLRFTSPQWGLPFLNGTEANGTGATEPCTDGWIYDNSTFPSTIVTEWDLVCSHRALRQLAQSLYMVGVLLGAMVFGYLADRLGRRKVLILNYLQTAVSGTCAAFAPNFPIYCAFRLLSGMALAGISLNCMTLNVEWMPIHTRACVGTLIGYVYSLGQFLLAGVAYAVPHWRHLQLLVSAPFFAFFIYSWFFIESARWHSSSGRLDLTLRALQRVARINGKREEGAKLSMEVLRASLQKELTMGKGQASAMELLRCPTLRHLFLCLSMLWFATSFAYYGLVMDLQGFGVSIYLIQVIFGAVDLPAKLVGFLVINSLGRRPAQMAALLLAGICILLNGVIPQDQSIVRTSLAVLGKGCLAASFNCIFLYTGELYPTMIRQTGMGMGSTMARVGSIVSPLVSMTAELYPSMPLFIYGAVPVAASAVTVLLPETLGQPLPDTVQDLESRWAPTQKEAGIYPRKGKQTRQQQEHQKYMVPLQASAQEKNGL
# assay: Uptake of UTs in HEK293T-OAT1 cells
# Type: cell-based
# assay_conditions: 100 μM, 30 min, 37 °C, with HSA
Structures can show the parent of a compound that is named as a salt.
attribute_measured: uptake of HSA-bound UT in OAT1-overexpressing cells vs control cells

Before answering, review these 4 worked examples.
compound	value_observed
O=C(O)Cc1c[nH]c2ccccc12	significantly increased
Cc1ccc(OS(=O)(=O)O)cc1 [p-cresol sulfate]	significantly increased
CCCc1oc(CCC(=O)O)c(C(=O)O)c1C	dramatically increased
O=C(O)CNC(=O)C=Cc1ccccc1	dramatically increased

With those in mind, consider the next compound.
Provide one value: measured uptake of HSA-bound UT in OAT1-overexpressing cells vs control cells of `O=C(O)c1cc(=O)c2ccccc2[nH]1`
dramatically increased

###

# subject_of_test: OAT3 (Homo sapiens, UniProt Q8TCC7)
# assay: Transport kinetics of UTs in HEK293T-OAT3 cells
# Assay type: cell-based
# assay_conditions: read-out: Km of OAT3-mediated uptake; HEK293T-OAT3, Michaelis-Menten
attribute_measured: Km (µM)
Please respond with the number in µM and leave the unit unwritten.

Assign Km to the following record: O=C(O)CNC(=O)C=Cc1ccccc1 [N-(cinnamoyl)glycine]
2980

###

# System: MRP4
# assay: Intracellular accumulation of UTs in MRP4-overexpressing cells
# Type: cell-based, human
# assay_conditions: 100 μM, 30 min, 37 °C, 4 mM ATP
attribute_measured: intracellular accumulation in MRP4-overexpressing cells vs control cells

chemical_smiles	subject_of_test	value_observed
CCCc1oc(CCC(=O)O)c(C(=O)O)c1C	MRP4	significantly decreased
CC(=O)N[C@@H](CCCN=C(N)N)C(=O)O	MRP4	significantly decreased

###

# subject_of_test: OAT3 (Homo sapiens, UniProt Q8TCC7)
# assay: Uptake of UTs in HEK293T-OAT3 cells
# Assay type: cell-based
# assay_conditions: 100 μM, 30 min, 37 °C, with HSA
Structures can show the parent of a compound that is named as a salt.
attribute_measured: uptake of HSA-bound UT in OAT3-overexpressing cells vs control cells

Sample answers from the record:
compound	value_observed
CCc1ccc(OS(=O)(=O)[O-])cc1.[K+] [4-ethylphenyl sulfate]	no significant change
O=S(=O)(O)Oc1c[nH]c2ccccc12 [3-indoxyl sulfate]	no significant change
O=C(O)CNC(=O)C=Cc1ccccc1 [N-(cinnamoyl)glycine]	dramatically increased
Cc1ccc(O[C@@H]2O[C@H](C(=O)O)[C@@H](O)[C@H](O)[C@H]2O)cc1 [p-cresol glucuronide]	markedly increased
O=C(O)c1cc(=O)c2ccccc2[nH]1 [Kynurenic acid, kynurenic acid]	dramatically increased
OC[C@H]1O[C@@H](Oc2c[nH]c3ccccc23)[C@H](O)[C@@H](O)[C@@H]1O [3-indoxyl-β-D-glucopyranoside]	markedly increased
O=C(O)CNC(=O)c1ccccc1 [Hippuric acid, hippuric acid]	dramatically increased

Continue with the compound presented below.
For CCCc1oc(CCC(=O)O)c(C(=O)O)c1C [CMPF] , write its uptake of HSA-bound UT in OAT3-overexpressing cells vs control cells.
dramatically increased

###

# subject_of_test: UniProtKB Q4U2R8
# assay: Transport kinetics of UTs in HEK293T-OAT1 cells
# Format: cell-based
# assay_conditions: read-out: Km of OAT1-mediated uptake; HEK293T-OAT1, Michaelis-Menten
attribute_measured: Km (mM)
// return numeric value only (unit: mM, not printed)

Report Km, nothing else, for this molecule: O=C(O)CNC(=O)C=Cc1ccccc1 [N-(cinnamoyl)glycine]
4.26

###

# subject_of_test: OAT1 (Homo sapiens, UniProt Q4U2R8)
# assay: Uptake of UTs in HEK293T-OAT1 cells
# Assay type: cell-based
# assay_conditions: 100 μM, 30 min, 37 °C, without HSA
Where a name gives a salt, the structure may show the parent alone.
attribute_measured: uptake of free UT in OAT1-overexpressing cells vs control cells

compound	value_observed
Cc1ccc(OS(=O)(=O)O)cc1 [p-cresol sulfate]	significantly increased
O=C(O)Cc1c[nH]c2ccccc12	significantly increased
CC(=O)Nc1ccn([C@@H]2O[C@H](CO)[C@@H](O)[C@H]2O)c(=O)n1	significantly increased

###

# System: serum protein
# assay: Protein-binding ratio of UTs in rat serum
# Format: in vitro ADME, rats
# assay_conditions: ultrafiltration at 37 °C
Structures can show the parent of a compound that is named as a salt.
# reported Protein-binding ratio, Normal rats in vivo (%) (n = 6); entries follow

compound	value_observed
OC[C@H]1O[C@@H](Oc2c[nH]c3ccccc23)[C@H](O)[C@@H](O)[C@@H]1O [3-indoxyl-β-D-glucopyranoside]	> 90%
O=C(O)[C@H]1O[C@@H](Oc2ccccc2)[C@H](O)[C@@H](O)[C@@H]1O [Phenyl-β-D-glucuronide, phenyl-β-D-glucuronide]	< 70%
Cc1ccc(OS(=O)(=O)O)cc1 [p-cresol sulfate]	> 90%

Now for another entry.
Provide measured Protein-binding ratio, Normal rats in vivo (%) (n = 6) value, entry: `CCCc1oc(CCC(=O)O)c(C(=O)O)c1C`
> 90%

###

# subject_of_test: UniProt:Q8TCC7
# Sequence (Q8TCC7 1-542): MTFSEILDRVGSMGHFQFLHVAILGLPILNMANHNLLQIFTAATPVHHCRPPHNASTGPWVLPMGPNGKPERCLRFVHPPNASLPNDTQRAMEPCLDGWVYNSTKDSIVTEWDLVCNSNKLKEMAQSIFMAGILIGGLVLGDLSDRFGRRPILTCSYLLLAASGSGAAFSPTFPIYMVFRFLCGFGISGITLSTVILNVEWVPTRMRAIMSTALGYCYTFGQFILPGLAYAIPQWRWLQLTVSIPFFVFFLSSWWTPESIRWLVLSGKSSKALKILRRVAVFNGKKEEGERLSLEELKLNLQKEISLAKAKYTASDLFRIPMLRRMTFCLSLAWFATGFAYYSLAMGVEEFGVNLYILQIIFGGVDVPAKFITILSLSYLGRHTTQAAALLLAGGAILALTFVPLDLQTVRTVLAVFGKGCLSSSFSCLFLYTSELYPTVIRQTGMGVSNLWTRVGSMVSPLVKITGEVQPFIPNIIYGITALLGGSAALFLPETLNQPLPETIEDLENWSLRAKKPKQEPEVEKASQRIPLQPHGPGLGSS
# assay: Uptake of UTs in HEK293T-OAT3 cells
# Assay type: cell-based
# assay_conditions: 100 μM, 30 min, 37 °C, without HSA
Structures can show the parent of a compound that is named as a salt.
attribute_measured: uptake of free UT in OAT3-overexpressing cells vs control cells

Worked cases, answers included:
compound	value_observed
CC(=O)Nc1ccn([C@@H]2O[C@H](CO)[C@@H](O)[C@H]2O)c(=O)n1 [N-acetylcytidine]	significantly increased
CCc1ccc(OS(=O)(=O)[O-])cc1.[K+] [4-ethylphenyl sulfate]	substantially elevated
OC[C@H]1O[C@@H](Oc2c[nH]c3ccccc23)[C@H](O)[C@@H](O)[C@@H]1O [3-indoxyl-β-D-glucopyranoside]	markedly increased
Cc1ccc(O[C@@H]2O[C@H](C(=O)O)[C@@H](O)[C@H](O)[C@H]2O)cc1 [p-cresol glucuronide]	markedly increased
O=S(=O)(O)Oc1c[nH]c2ccccc12 [3-indoxyl sulfate]	substantially elevated

Provide one value: measured uptake of free UT in OAT3-overexpressing cells vs control cells of Cc1ccc(OS(=O)(=O)O)cc1 [p-cresol sulfate]
significantly increased

Provide measured uptake of free UT in OAT3-overexpressing cells vs control cells value, entry: O=C(O)[C@H]1O[C@@H](Oc2ccccc2)[C@H](O)[C@@H](O)[C@@H]1O [Phenyl-β-D-glucuronide, phenyl-β-D-glucuronide]
significantly increased
